- targetOrTestSystem: CYP2D6 (Homo sapiens, UniProt P10635)
- Sequence (P10635 whole entry): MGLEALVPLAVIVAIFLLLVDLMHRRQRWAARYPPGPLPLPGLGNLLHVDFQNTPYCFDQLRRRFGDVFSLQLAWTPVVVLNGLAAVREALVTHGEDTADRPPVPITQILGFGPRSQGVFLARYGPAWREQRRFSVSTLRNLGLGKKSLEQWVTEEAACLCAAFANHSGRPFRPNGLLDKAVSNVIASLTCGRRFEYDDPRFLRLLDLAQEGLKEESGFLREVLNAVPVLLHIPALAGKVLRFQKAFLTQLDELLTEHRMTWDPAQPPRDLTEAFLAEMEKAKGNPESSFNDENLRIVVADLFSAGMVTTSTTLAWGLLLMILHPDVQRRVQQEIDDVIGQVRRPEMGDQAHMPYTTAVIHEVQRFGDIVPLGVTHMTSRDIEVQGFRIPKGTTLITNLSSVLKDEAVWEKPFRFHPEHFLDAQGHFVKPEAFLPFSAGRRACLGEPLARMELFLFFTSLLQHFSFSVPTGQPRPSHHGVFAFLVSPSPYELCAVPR
pIC50: −log10 of the molar value.
readout: pIC50

// query Dear colleague, I am looking for the recorded pIC50 of the following compound: O=C1CCC(N2Cc3cc(C4CCN(Cc5ccccc5)CC4)ccc3C2=O)C(=O)N1 (stereo not shown)
// result ~4.19

###

- protocolText: Single oral dose PK in cynomolgus monkey
- Type: in vivo
- measurementConditions: plasma, unbound, single oral dose 1 mg/kg, n = 3, mean ± SD, read-out: AUC24 h
readout: AUC(0-t) (ng·h/mL)
Answer in ng·h/mL, number only, no unit symbol.

// query Dear colleague, I am looking for the recorded AUC(0-t) of the following compound: O=C1CCC(N2Cc3cc(C4CCN(Cc5ccccc5)CC4)ccc3C2=O)C(=O)N1 (stereo not shown)
// result 610

###

- protocolText: In vivo non-clinical PK, monkey
- Design: species or system cynomolgus monkey
- measurementConditions: cynomolgus monkey, blood, po
- Protocol: The in vivo non-clinical PK profile of I-57 was investigated in mouse, rat, dog and cynomolgus monkey using I-57 free base. […] After p.o. administration, the absorption of I-57 was rapid with peak blood concentration (Tmax) occurring between 1 and 4 hours. […] In high dose PK and toxicology studies with I-57 the exposures in mouse, rat and monkey increased with dose.
readout: bioavailability (%)
Answer in %, number only, no unit symbol.

// query Dear colleague, I am looking for the recorded bioavailability of the following compound: O=C1CCC(N2Cc3cc(C4CCN(Cc5ccccc5)CC4)ccc3C2=O)C(=O)N1 (stereo not shown)
// result 89

###

- protocolText: In vivo non-clinical PK, dog
- measurementConditions: blood, po
readout: bioavailability (%)
Answer in %, number only, no unit symbol.

// query Dear colleague, I am looking for the recorded bioavailability of the following molecule: O=C1CCC(N2Cc3cc(C4CCN(Cc5ccccc5)CC4)ccc3C2=O)C(=O)N1 (stereo not shown) [Compound I-57]
// result 91

###

- protocolText: Repeated oral dose PK in MDA-MB231 xenograft human PBMC adoptive transfer model
- Assay type: in vivo, NSG mice
- measurementConditions: female, NSG, mouse, plasma, po, 0.3 mg/kg, unbound; hPBMC AdT mouse; post 13th dose; p.o. 0.3 mg/kg daily
readout: AUC(0-inf) (ng·h/mL)
Answer in ng·h/mL, number only, no unit symbol.

// query Dear colleague, I am looking for the recorded AUC(0-inf) of the following compound: O=C1CCC(N2Cc3cc(C4CCN(Cc5ccccc5)CC4)ccc3C2=O)C(=O)N1 (stereo not shown)
// result 7.5

###

- protocolText: Repeated daily oral dose PK in cynomolgus monkey
- Type: in vivo
- measurementConditions: plasma, po, 3 mg/kg/day, unbound, Day 29, Group 5 (I-57 + KLH + adjuvant), 3 mg/kg/day oral, read-out: AUC0-24
readout: AUC(0-t) (ng·h/mL)
Answer in ng·h/mL, number only, no unit symbol.

// query Dear colleague, I am looking for the recorded AUC(0-t) of the following compound: O=C1CCC(N2Cc3cc(C4CCN(Cc5ccccc5)CC4)ccc3C2=O)C(=O)N1 (stereo not shown)
// result 3460

###

- protocolText: Single oral dose PK in cynomolgus monkey
- Type: in vivo
- measurementConditions: plasma, unbound, single oral dose 1 mg/kg, n = 3, mean ± SD
- Procedure: The PK/PD relationship of I-57 was examined in cynomolgus monkeys after a single oral dose of 0.01, 0.1 or 1 mg/kg. I-57 plasma concentration and IKZF2 expression (as determined by flow cytometry) in FOXP3+ T cells from PBMCs were determined (FIG. 4 and FIG. 5).
readout: Cmax (ng/mL)
Answer in ng/mL, number only, no unit symbol.

// query Dear colleague, I am looking for the recorded Cmax of the following molecule: O=C1CCC(N2Cc3cc(C4CCN(Cc5ccccc5)CC4)ccc3C2=O)C(=O)N1 (stereo not shown)
// result 102

Data provenance is patent US20230321067A1.
